# Test: amyloid nucleation score (Sup35N fusion, yeast selection) (log enrichment); library NNK3; higher = more nucleation; inactive = no reads after selection;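 further: zero at mode of non-aggregating sequences after 7 days selection at 30°C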
Reported Endpoint: amyloid nucleation score

> print(dat)
               substance  observed.result
 1          LGHGFWQFSYLG         inactive
 2  ERNFPGLFIQLVHLQPEARM            0.631
 3               RLRFLRT         inactive
 4      IYSSCPFNLTSRMVGF         inactive
 5          TTCWVYMLVILA             1.38
 6  FMYSFDLWYKRLNCLMMLVF         inactive
 7  FFFYFLRFSDFNWFINWLIS         inactive
 8  PLSLSGGDDDRLLSLEMLVL         inactive
 9  GSGGAMELVRFYYLNVAVCV         inactive
10  KGLSIIWMGQFGGAEFRITG         inactive
11  KNSTWMSESVNNRFFIQVGA         inactive
12  IHDMVQYERCDNRNSNRVHE         inactive
13  IQPCFIGIGVGYSRFVGRFF            0.982
14  DSGVSEQWGGGIELILSWCL         inactive
15               VVGSSIK         inactive
